# target of assay: T1, EpoR (UniProt P19235 25-508, limits assumed)
# T1 sequence (looked up): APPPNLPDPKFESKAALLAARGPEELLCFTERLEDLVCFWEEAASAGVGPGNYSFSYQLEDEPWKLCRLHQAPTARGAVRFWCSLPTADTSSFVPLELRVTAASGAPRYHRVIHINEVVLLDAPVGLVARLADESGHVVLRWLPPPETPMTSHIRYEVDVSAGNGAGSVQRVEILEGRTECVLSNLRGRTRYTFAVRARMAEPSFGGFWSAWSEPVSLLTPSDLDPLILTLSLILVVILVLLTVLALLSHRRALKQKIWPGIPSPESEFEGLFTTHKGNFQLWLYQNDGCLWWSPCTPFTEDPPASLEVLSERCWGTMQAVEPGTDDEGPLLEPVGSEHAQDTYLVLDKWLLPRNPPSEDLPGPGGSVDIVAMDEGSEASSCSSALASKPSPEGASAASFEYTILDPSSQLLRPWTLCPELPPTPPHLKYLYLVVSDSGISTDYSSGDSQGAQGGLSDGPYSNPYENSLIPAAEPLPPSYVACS
# assay protocol: cell-based or functional assay
Positions of bridges follow the written chain, without caps; N, C: chain ends. No end group written: not given here.
# key: entry, value: EC50
reported endpoint: EC50

binder="AET-EPO-GS8 (disulfide 9-18, 37-46) peptide: AETGGLYACHMGPMTWVCQPLRGGGGGSGGGGGLYACHMGPMTWVCQPLRG" reported_endpoint=EC50 reported="0.53 ng/mL"
binder="AET-EPO-GS22 (disulfide 9-18, 51-60) peptide: AETGGLYACHMGPMTWVCQPLRGGGGGSGGGGSGGGGSGGGGSGGGGLYACHMGPMTWVCQPLRG" reported_endpoint=EC50 reported="1.3 ng/mL"
binder="AET-EPO-PAS49 (two disulfide bonds in the molecule) peptide: AETGGLYACHMGPMTWVCQPLRGAAPAAPAPAAPAAPAPAAPAAPAPAAPAAPAPAAPAAPAPAAPAAPAPAGGLYACHMGPMTWVCQPLRG" reported_endpoint=EC50 reported="4.3 ng/mL"
binder="AET-EPO-PAS100 (two disulfide bonds in the molecule) peptide: AETGGLYACHMGPMTWVCQPLRGAAPAAPAPAAPAAPAPAAPAAPAPAAPAAPAPAAPAAPAPAAPAAPAPAAPAAPAPAAPAAPAPAAPAAPAPAAPAAPAPAAPAAPAPAAPAAPAPAAPAGGLYACHMGPMTWVCQPLRG" reported_endpoint=EC50 reported="6.6 ng/mL"
